Target: human CA-IX (Homo sapiens, UniProt Q16790)
Construct: purchased Acro CA9-H82E3
Assay: Surface Plasmon Resonance (SPR) binding kinetics to recombinant human CA-IX (Biacore 8K, single-cycle kinetics, 1:1 binding model)
Settings: read-out: CAIX KD; Chelated Metal: Lu-175; SPR, 25° C., pH 7.4
molecules and their reported Kd

- MOLECULE: "CC(CCC(=O)N1CCOC[C@H]1C(=O)N[C@@H](CC(=O)N1CCN(C(=O)CN2CCN(CC(=O)O)CCN(CC(=O)O)CCN(CC(=O)O)CC2)C[C@@H]1Cn1cc(C23CC(C(=O)Nc4nnc(S(N)(=O)=O)s4)(C2)C3)nn1)C(=O)O)(c1ccc(O)cc1)c1ccc(O)cc1.[Lu+3] [Compound 114]"
  EXPERIMENTAL ENDPOINT: "Kd"
  RESULT: "1 to 2.5 nM"
- MOLECULE: "CC(CCC(=O)N[C@@H](CC(=O)N[C@@H](CC(=O)NC1(C(=O)NCCOCCOCCNC(=O)CN2CCN(CC(=O)O)CCN(CC(=O)O)CCN(CC(=O)O)CC2)CN(C(=O)Cn2cc(CCCC(=O)Nc3nnc(S(N)(=O)=O)s3)nn2)C1)C(=O)O)C(=O)O)(c1ccc(O)cc1)c1ccc(O)cc1.[Lu+3] [Compound 103]"
  EXPERIMENTAL ENDPOINT: "Kd"
  RESULT: "1 to 2.5 nM"
- MOLECULE: "NS(=O)(=O)c1nnc(NC(=O)C23CCC(c4cn(CCNC(=O)[C@@H]5CN(C(=O)CCCc6ccc(O)cc6)CCN5C(=O)CC[C@H](NC(=O)C[C@H](NC(=O)CN5CCN(CC(=O)O)CCN(CC(=O)O)CCN(CC(=O)O)CC5)C(=O)O)C(=O)O)nn4)(CC2)CC3)s1.[Lu+3] [Compound 132]"
  EXPERIMENTAL ENDPOINT: "Kd"
  RESULT: "< 1 nM"

Exam item: Query: Kd; subject: CC(CCC(=O)N[C@@H](CC(=O)N[C@@H](CC(=O)N1CCN(C(=O)CCOCCOCCOCCOCCOCCOCCOCCOCCNC(=O)CN2CCN(CC(=O)O)CCN(CC(=O)O)CCN(CC(=O)O)CC2)C[C@H]1C(=O)NCCn1cc(C23CC(C(=O)Nc4nnc(S(N)(=O)=O)s4)(C2)C3)nn1)C(=O)O)C(=O)O)(c1ccc(O)cc1)c1ccc(O)cc1.[Lu+3] [Compound 129]
Marked response: 1 to 2.5 nM
